target: anti-H3K4me3 antibody ab8580
assay.summary: peptide microarray binding signal (635 nm), min-max normalized on array (fraction of array maximum); higher = stronger binding
settings: peptide region: Unmod H2A variant; binder concentration: 1:10,000 dilution
experimental.readout: peptide microarray binding signal
A bare number is all that is needed in reply.

Item LNKLLGKVTIAQG [Unmod H2A variant L N K L L G K V T I A Q G] has what recorded peptide microarray binding signal? 0.00171

Lookup GAGAPVYLAAVLE [Unmod H2A variant G A G A P V Y L A A V L E] 0.0016

Lookup LAAVLEYLTAEIL [Unmod H2A variant L A A V L E Y L T A E I L] 0.000913

Lookup GAGAPVYMAAVLE [Unmod H2A variant G A G A P V Y M A A V L E] 0.0016

Lookup QGGKARAKAKTRS [Unmod H2A variant Q G G K A R A K A K T R S] 0.000685

Lookup AGLQFPVGRVHRL [Unmod H2A variant A G L Q F P V G R V H R L] 0.00793

Lookup RNDEELNKLLGRV [Unmod H2A variant R N D E E L N K L L G R V] 0.0016

Lookup RSSRAGLQFPVGR [Unmod H2A variant R S S R A G L Q F P V G R] 0.00148
